Reference source: the supplement of paper PMC10567573

test: protein stability index of a GFP-peptide fusion (GPS, HEK-293T) (PSI 1-6); higher = more stable; details: treatment: MLN4924 1 uM, 8 h; c terminus: a fixed tail appended;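 further: 24-mer peptide tiles fused after GFP, lentivirally expressed, FACS-sorted into six equal bins by GFP/DsRed ratio, decoded by Illumina sequencing, PSI is the read-weighted mean bin number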
Output true (1) for protein stability index not less than 3; output false (0) otherwise.

Solved cases below.
seq-string: GSSPKSKTKWTKEDGHRTSTSAVP [ADD1]
class: true (1)
--
seq-string: ENKENEAFEFKKPVRPVSRGCLHS [CDC25A]
class: true (1)
--
seq-string: MKSEEQKIKDARKGPLVPFPNQKS [KMT5A]
class: true (1)
--
seq-string: VRVPNGGGGGGGLPISTVREVALL [CDK4]
class: false (0)
--
seq-string: MYFSSLFPYVVLACFLVRGLLLRG [SLC6A17]
class: false (0)
--
seq-string: MCQRLRSMQYNGSYFDRGAKGGSR [DFFB]
class: true (1)
--
seq-string: FKMLDPDGKGKINKEYIKRLLMSQ [MYL5]
class: false (0)
--
seq-string: RAVLGANDPEKNFLTTAIRPHGIF [NSDHL]
class: true (1)
--
seq-string: RQTSTKAVQHFYNIKLEGKVPMHK [ESRRG]
class: true (1)
--
seq-string: AFCSSDEELEDSKALLYLPIAPEV [RBBP5]
class: true (1)

Please tell me: is the sequence HGLPFLPGTSFKDSTKTAFHRSQT [EFHC1] at or over 3 in terms of protein stability index?
true (1)

# bool: protein stability index of MDSDFSHAFQKELTCVICLNYLVD [TRIM43] >= 3
false (0)

Is reported protein stability index greater than or equal to 3 here: FSQLEDKFPGQSSFLWQRGRKFLQ [TOR1AIP2]
false (0)

Check if protein stability index >= 3 (inclusive). Item: LTKHEWTEALGCDPPLSQDERTHR [ZNF8]
true (1)

Hi team, for WEISWPLEQRGTHAVVGVATALAP [SPSB2] , is the recorded protein stability index at or above 3?
false (0)

====

protein stability index values for the sequences below.
assay: protein stability index of a GFP-peptide fusion (GPS, HEK-293T) (PSI 1-6); higher = more stable; details: treatment: MLN4924 1 uM, 8 h; c terminus: a fixed tail appended
The response must contain the number and no unit.

Recorded protein stability index (sequence VVSMTTVGYGDMYPVTIGGKIVGS [KCNA1] ): 2.14

Just so you know, measured protein stability index for RSPSGSLRSARGSRGGTRGWLPSH [RBMY1A1] came out at 4.07

Form: sequence = KTQICHTLAVTCQLPIDRGGGEGK [RAD51] ; protein stability index = 3.95

Record summary for GEENFEVVKQFVTGIIDSLTISPK [MATN2] : reported protein stability index = 3.32

Field protein stability index (entry IGWKTVRMYPFQIHSIALSTFASL [CDS2] ) reads 2.65

The reported protein stability index of the sequence PPAMPPPATHLSPALAPVPRNSCI [TRIM9] was 4.38

Please fill in: protein stability index reported for AKVLTLSDDLERTIEERVNILFDF [EIF5] = 2.4

====

assay: protein stability index of a GFP-peptide fusion (GPS, HEK-293T) (PSI 1-6); higher = more stable; details: treatment: DMSO; c terminus: a fixed tail appended
Parameter threshold = 3. Response is condition met when protein stability index meets or exceeds it, else condition not met.

Reference set (8 entries):
seq-string: TPLEPDAKDLPCDSKPESALGAPS [TBX5]
class: condition met

seq-string: MKSEEQKIKDARKGPLVPFPNQKS [KMT5A]
class: condition met

seq-string: GSYSSTMNGHQNGLDSPPLYPSAP [ESRRG]
class: condition met

seq-string: EPLAEGAAAEFSSLLRRIKGKLFT [SLC35F2]
class: condition not met

seq-string: DARDEELEKDTMDNWDEKKLEEVV [ZC3H15]
class: condition met

seq-string: VGFMWRQRGRVISLWERLEFVNGW [MCOLN1]
class: condition not met

seq-string: TTSWGLLSLGALVALCWQLGLLFE [SCNN1D]
class: condition not met

seq-string: PSIIPQEDPSQQFLQQSLERVYSL [INTS4]
class: condition met

Record QFEPQLTLWDVFGANKEVQELLER [RSAD1] ; criterion: protein stability index no lower than 3. Met?
condition met

Is the recorded value of protein stability index equal to or greater than 3 for this sequence? ALLDLHFPSDHLGDLGDPFHLGLE [TFE3]
condition not met

Identify whether the reported protein stability index of the following sequence is 3 or greater: AYDLSSVIASGSSVGHNNLIPLAN [CARM1]
condition met

Assess whether reported protein stability index for NALTLFNLAQDPQCKEWQVLMCGF [TMEM120A] sits at 3 or higher.
condition not met

Could you tell me if the measured protein stability index of LQTVTREKEELLQLSIERGKVLQN [CCDC89] reaches 3 or more?
condition met

Is protein stability index for LAAGSAVFDAMFNGGMATTSAEIE [BTBD1] at or above 3?
condition met

====

assay: protein stability index of a GFP-peptide fusion (GPS, HEK-293T) (PSI 1-6); higher = more stable; conditions: treatment: DMSO; c terminus: a fixed tail appended
attribute-measured: protein stability index
Note: the reply should be a number with no unit written.

Field: example entries. Status: answers known.
seq-string: ETFSTLKNWVKELRQHGPPNIVVA [RAB22A]
protein stability index: 2.4
//
seq-string: YISETVLAIDAIHQLGFIHRDIKP [STK38L]
protein stability index: 2.33
//
seq-string: ANNDHTVLSLACAGGHLAVVELLL [ANKRD17]
protein stability index: 2.41
//
seq-string: HFERRDNMNDNFLEGEEENELTLN [CHGB]
protein stability index: 5.53
//
seq-string: PKMLVDLLSQKKTISFLGCAIQMF [OR10K2]
protein stability index: 2.84

protein stability index for SQGEVEKLIKCDEIQVDSEEPVFE [KLHL12] is 5.23

Entry SLIPPRSEQLVNFTGKAEMGGPFS [TMEM106C] — recorded protein stability index = 3.65

====

assay: protein stability index of a GFP-peptide fusion (GPS, HEK-293T) (PSI 1-6); higher = more stable; conditions: treatment: DMSO; c terminus: a fixed tail appended
attribute-measured: protein stability index

seq-string: LDYYKTGIIRCPDGISIPELREAC [BTBD10]
attribute-measured: protein stability index
result: 2.42

seq-string: GYRTSAVASGLQFDVETRHVFIGD [WDFY2]
attribute-measured: protein stability index
result: 2.86

seq-string: ARVLDRRGCSRVEGGGTSLHVACE [ANKRD9]
attribute-measured: protein stability index
result: 3.57

seq-string: MVATANNRQTFVNSAIRFLRKYSF [CHIT1]
attribute-measured: protein stability index
result: 2.65

seq-string: ELQIELLRETKRKYESVLQLGRAL [ARFIP2]
attribute-measured: protein stability index
result: 2.54

Briefly, protein stability index measured for GPTSSNPRKRHREDSDVEMVEDDS [MLH1] : 5.32

// recorded protein stability index for CGPQWEMSEWSECTAKCGERSVVT [ADAMTSL2] : 2.92

Briefly, protein stability index measured for KHMFERSFTQGEGARPLSTRVPRA [MATN2] : 4.07

====

Listed here are sequences together with their documented protein stability index.
assay: protein stability index of a GFP-peptide fusion (GPS, HEK-293T) (PSI 1-6); higher = more stable; settings: treatment: DMSO; c terminus: a fixed tail appended
Enter a number only.

Consider the worked cases shown below.
seq-string: LIFLSNFPFSLLGLLALAIGLWGL [TSPAN10]
result: 3.21
//
seq-string: SSENFDDYMKEVGVGFATRKVAGM [FABP4]
result: 3.27
//
seq-string: FEGDMGAAGGDGELGSPLRRSISS [PSD2]
result: 4.81
//
seq-string: RRTRPRHHHGRSRPDRSSQGGSLP [CHGB]
result: 4.93
//
seq-string: LGHSPVLRNITNSQAPDGRRKSEA [CDC25B]
result: 3.77
//
seq-string: TVRGATGIFPLSFVKILKDFPEED [NCF4]
result: 3.43

Let us examine a further case.
The recorded protein stability index for LMSSAVPMTPEDPSFWDCFCFTEE [AASDHPPT] is 3.98

====

Listed here are sequences together with their documented protein stability index.
assay: protein stability index of a GFP-peptide fusion (GPS, HEK-293T) (PSI 1-6); higher = more stable; conditions: treatment: MLN4924 1 uM, 8 h; c terminus: a fixed tail appended
No unit in the answer, please; the number alone is enough.

seq-string: MGFAAKAMKSVHENMDLNKIDDLM [CHMP4C]
protein stability index: 3.48
--
seq-string: LAFLDKIKSVKESLQESVEDSLAT [IQUB]
protein stability index: 3.77
--
seq-string: KHERTHEIIPINVNNNYEHRHTSH [SPRY1]
protein stability index: 3.91
--
seq-string: PSDDLTLLESSSSYKNLTLKFHKL [MCOLN1]
protein stability index: 3.31
--
seq-string: ANAVISVSGINHDVTSGDHGDYFR [CPN1]
protein stability index: 3.48

Reported protein stability index for LEIPVETITSEVIEKCTTPLSDDH [CRY1] was 5.02

Notebook: VNQDILENKESWDKILALVPETIH [PRIM1] , protein stability index read as 2.85
